Reported phosphorylation enrichment values for the following sequences.
- assayed-system: EPHB2 (UniProt P29323)
- Sequence (P29323 whole entry, looked up): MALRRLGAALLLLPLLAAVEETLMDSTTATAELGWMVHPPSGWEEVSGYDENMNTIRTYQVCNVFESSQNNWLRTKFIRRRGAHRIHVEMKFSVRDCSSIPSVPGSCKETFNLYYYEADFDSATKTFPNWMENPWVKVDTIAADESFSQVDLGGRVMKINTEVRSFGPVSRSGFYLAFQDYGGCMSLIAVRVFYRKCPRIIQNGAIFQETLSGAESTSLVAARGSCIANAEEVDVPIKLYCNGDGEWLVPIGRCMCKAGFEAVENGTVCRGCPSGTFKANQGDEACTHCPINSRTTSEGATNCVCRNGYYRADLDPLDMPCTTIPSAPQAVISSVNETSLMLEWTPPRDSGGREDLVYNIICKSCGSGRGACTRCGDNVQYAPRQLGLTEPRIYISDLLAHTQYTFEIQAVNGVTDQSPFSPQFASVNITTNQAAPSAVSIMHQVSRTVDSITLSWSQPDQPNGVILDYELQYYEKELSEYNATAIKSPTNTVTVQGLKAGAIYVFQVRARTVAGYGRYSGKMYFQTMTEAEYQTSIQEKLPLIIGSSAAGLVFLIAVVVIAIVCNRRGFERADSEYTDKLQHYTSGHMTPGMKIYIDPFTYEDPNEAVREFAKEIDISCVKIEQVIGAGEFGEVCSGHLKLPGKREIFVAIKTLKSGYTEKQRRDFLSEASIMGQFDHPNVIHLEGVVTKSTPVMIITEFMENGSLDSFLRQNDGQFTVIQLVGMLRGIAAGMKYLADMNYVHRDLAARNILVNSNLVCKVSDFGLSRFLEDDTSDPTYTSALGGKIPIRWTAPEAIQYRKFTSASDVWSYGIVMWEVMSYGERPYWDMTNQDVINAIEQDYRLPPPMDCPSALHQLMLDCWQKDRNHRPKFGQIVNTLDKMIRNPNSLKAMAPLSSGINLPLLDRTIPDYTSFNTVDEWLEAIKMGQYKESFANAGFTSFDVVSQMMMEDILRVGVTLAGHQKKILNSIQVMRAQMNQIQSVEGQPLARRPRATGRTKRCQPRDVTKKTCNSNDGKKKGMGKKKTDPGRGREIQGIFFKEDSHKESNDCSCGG
- measurement-description: phosphorylation enrichment, bacterial display (enrichment ratio); higher = better substrate or ligand; peptides without Tyr show the background;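 also: 11-residue human phosphosite peptides and single-mutation variants displayed on the E. coli surface, counted by deep sequencing, each peptide's frequency after selection divided by its frequency in the unselected input library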;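 also: frequency after pTyr selection over input frequency; kinase dosed for 20-30% of maximal phosphorylation in three min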
Give the figure by itself; no unit, no explanation.

Reference set, count: 6
QLCVSYPGGYT [PROS1_Y259_N258S]; 0.719
RASSSYRETPS [SORBS1_Y79]; 0.337
KGEDFYCVTRH [FHL1_Y149_C153R]; 0.558
EQKRFYNAMKK [SCN5A_Y1495_K1493R_YF]; 0.309
EVQKDYEHLFK [PAM16_Y77_N76D]; 0.525
RSGIYYKPESL [L2HGDH_Y103_H98R]; 3.34

Give measured phosphorylation enrichment for HRGHLYLAIEF [TEK_Y899_Y897H_YF] (EPHB2 (UniProt P29323)).
1.67

Give measured phosphorylation enrichment for TLGPFYPSLLF [CRYAA_Y18_R21L] (EPHB2 (UniProt P29323)).
0.541

Give measured phosphorylation enrichment for SPPILYSFYLD [FCRL6_Y239] (EPHB2 (UniProt P29323)).
4.22
